- System: HeLa
- MEASUREMENT_DESCRIPTION: Primary qHTS to identify gynecologic anti-cancer compounds using libraries of approved drugs and bioactive compounds (AID 1345084); note: nearly all actives have a fitted effect of over 55% in size
- CONDITION_SUMMARY: Gynecologic cancer cell panel viability, ATPlite luminescence, 48 h; series mostly up to 57.5 µM
Records with an inconclusive call do not appear. The source made the active and inactive calls. Calls come from the whole dose curve; as a rule, active = well fitted cell-killing curve with a large enough effect; inconclusive = small, poorly fitted or top-dose-only effect, or effect the other way; inactive = flat fitted curve, though single readings scatter.
PROPERTY: outcome

Worked examples, 7 compounds total:
- COMPOUND: "O=C(NCCO)c1cccc(-c2cc(Nc3ccc(OC(F)(F)F)cc3)ncn2)c1"
  PROPERTY: "outcome"
  RESULT: "inactive"
- COMPOUND: "CN[C@@H]1[C@H](O[C@H]2[C@H](O[C@@H]3[C@@H](O)[C@H](O)[C@@H](N=C(N)N)[C@H](O)[C@H]3N=C(N)N)O[C@@H](C)[C@]2(O)CO)O[C@@H](CO)[C@H](O)[C@H]1O"
  PROPERTY: "outcome"
  RESULT: "inactive"
- COMPOUND: "Cc1onc(-c2ccccc2)c1C(=O)N1CCN(c2ccc([N+](=O)[O-])cc2Cl)CC1"
  PROPERTY: "outcome"
  RESULT: "inactive"
- COMPOUND: "O=C(NCCN1CCN(c2cccc3ccc(O)cc23)CC1)c1ccc(F)cc1"
  PROPERTY: "outcome"
  RESULT: "inactive"
- COMPOUND: "CCC(CC)C(=O)OC12C(OC(=O)C(C)C)C(C)C3(O)C(C=C(CO)CC4(O)C(=O)C(C)=CC43)C1C2(C)C (stereo not drawn)"
  PROPERTY: "outcome"
  RESULT: "inactive"
- COMPOUND: "CCN(c1cc(-c2ccc(CN3CCOCC3)cc2)cc(C(=O)NCc2c(C)cc(C)[nH]c2=O)c1C)C1CCOCC1"
  PROPERTY: "outcome"
  RESULT: "inactive"
- COMPOUND: "CO[C@@H]1[C@H](O)CCC2(CO2)[C@H]1[C@@]1(C)O[C@@H]1CC=C(C)C (stereo partly drawn)"
  PROPERTY: "outcome"
  RESULT: "inactive"

The record that follows has no outcome shown yet.
## Input Item `COCCN(C(=O)c1cc(OC)c(OC)c(OC)c1)c1nc(-c2ccccc2)cs1` has what recorded outcome?
## Output inactive

###

- MEASUREMENT_DESCRIPTION: Primary qHTS for inhibitors of nuclear receptor binding SET domain protein 2 (NSD2) in an RCH-ACV wild type WT cells (2C) (AID 1645877); note: nearly all actives have a fitted effect of over 70% in size
- CONDITION_SUMMARY: RCH-ACV (leukaemia line) NSD2 WT (2C) viability, CellTiter-Glo, 72 h; series mostly up to 44.9 µM
Inconclusive results are not listed. The source made the active and inactive calls. Calls follow the shape of the dose curve; as a rule, active = well fitted inhibition curve with a large enough effect; inconclusive = small, poorly fitted or top-dose-only effect; inactive = no such curve, though single readings can be large or run the other way.
Reply using exactly one outcome from active, inactive

## Input Can you look up the reported call for `CC(C)S(=O)(=O)c1ccc2nccc(Nc3ccc4scnc4c3)c2c1` for me?
## Output active

## Input Repeat with `CS(=O)(=O)Nc1cc2occ(NC=O)c(=O)c2cc1Oc1ccccc1`
## Output inactive

## Input Repeat with `Cn1c(SCC(=O)N2CCC[C@H]2C(=O)Nc2ccccc2-c2ccccc2)nc2ccccc21`
## Output inactive

## Input Repeat with `CN1CCN(C(=O)CN[C@@H]2C[C@H]2c2ccc(OCc3ccccc3)cc2)CC1`
## Output active

## Input Repeat with `C=CC(=O)N1CCCN(c2cc(NCCC(=O)O)nc(-c3ccccn3)n2)CC1`
## Output inactive

## Input Repeat with `C#CCCCn1cc(-c2cccc3c2N[C@H](C)CC(=O)N3)cn1`
## Output active

## Input Repeat with COC(=O)CC1OC(C)C2=C(O)c3c(O)cccc3C(=O)C23OC13 (centres undefined)
## Output active

## Input Repeat with C=C1C(OC2OC(CO)C(O)C(O)C2O)CC2C(C)(C)C(O)CCC2(C)C1CC/C(C)=C\COC(=O)CC(=O)O (centres undefined)
## Output active

## Input Repeat with `CCN1CCN(Cc2ccc(NC(=O)c3ccc(C)c(Oc4ccnc5[nH]ccc45)c3)cc2C(F)(F)F)CC1`
## Output active

## Input Repeat with `COC(=O)c1ccc2c(c1)nc(NC(=O)c1ccccc1)n2CCCc1ccccc1`
## Output inactive

## Input Repeat with `Cc1cc(-c2ncc(-c3cccnc3)cc2/C=C/c2ccccc2)cnc1-c1cccnc1`
## Output inactive

## Input Repeat with Cc1nc2ccc(CN(C)c3ccc(C(=O)NC(CCC(=O)O)C(=O)O)s3)cc2c(=O)[nH]1 (centres undefined)
## Output active

## Input Repeat with `COc1ccncc1C(=O)NC(=O)Nc1ccc(-c2ccccc2)c(C(F)(F)F)c1`
## Output inactive

## Input Repeat with `COc1ccccc1S(=O)(=O)Nc1ccc2c(c1)CN(C)C(=O)N2`
## Output active

## Input Repeat with `COc1cc(NC(=O)c2cccc(-n3cc(NC(=O)Nc4cccc(C)c4)cn3)c2)cc(OC)c1OC`
## Output active

## Input Repeat with Cc1nc(NC(=O)N2CCCC2C(N)=O)sc1-c1ccnc(C(C)(C)C(F)(F)F)c1 (centres undefined)
## Output active

## Input Repeat with `C=C1C(=O)O[C@H]2/C=C(/C)[C@@H](OC(C)=O)C/C=C(\C)C[C@@H](OC(=O)/C(=C/C)COC(=O)/C(=C/C)CO)[C@@H]12`
## Output active

## Input Repeat with `O=C(CN1C2=NCCN2c2ccccc21)c1ccc(-c2ccccc2)cc1`
## Output active

## Input Repeat with CCNC(=O)Nc1ccc(-c2nc3c(c(N4CCOCC4C)n2)CCN(C2COC2)C3)cc1 (centres undefined)
## Output active

###

- MEASURED_ON: Cytochrome P450 2D6 (Homo sapiens) (UniProt P10635)
- Sequence (P10635 whole entry, looked up): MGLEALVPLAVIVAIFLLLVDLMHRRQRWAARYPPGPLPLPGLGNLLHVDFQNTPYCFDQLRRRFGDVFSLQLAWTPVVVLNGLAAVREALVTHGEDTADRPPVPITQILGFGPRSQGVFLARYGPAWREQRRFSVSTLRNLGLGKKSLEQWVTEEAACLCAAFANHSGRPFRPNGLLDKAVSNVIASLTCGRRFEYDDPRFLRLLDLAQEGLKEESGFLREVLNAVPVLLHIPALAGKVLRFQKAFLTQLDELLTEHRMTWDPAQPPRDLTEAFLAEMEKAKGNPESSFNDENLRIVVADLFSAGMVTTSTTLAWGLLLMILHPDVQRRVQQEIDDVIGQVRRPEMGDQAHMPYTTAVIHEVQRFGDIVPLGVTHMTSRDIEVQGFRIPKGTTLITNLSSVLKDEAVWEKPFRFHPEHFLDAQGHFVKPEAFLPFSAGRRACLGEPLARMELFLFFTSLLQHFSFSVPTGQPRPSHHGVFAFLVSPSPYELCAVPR
- MEASUREMENT_DESCRIPTION: Cytochrome P450 family 2 subfamily D member 6 (CYP2D6) small molecule antagonists: luciferase biochemical (cell-free) qHTS assay (AID 1645840); note: nearly all actives have a fitted effect of over 55% in size
- CONDITION_SUMMARY: P450-Glo CYP2D6 enzyme, luciferin luminescence, 1 h; series mostly up to 57.4 µM
Results filed as inconclusive are left out. The source made the active and inactive calls. Calls come from the whole dose curve; as a rule, active = well fitted inhibition curve with a large enough effect in the repeat runs; inconclusive = weak or mixed curves; inactive = flat fitted curve, though single readings scatter.
Reply using exactly one outcome from yes (1) = active, no (0) = inactive

## Input Can you look up the reported call for `Oc1ccc(-c2cnc3ccc(NCc4ccco4)nn23)cc1` for me?
## Output yes (1)

## Input Repeat with `CN(C)CCN(Cc1ccccc1)C(=O)c1cc(-c2ccc(F)cc2)n2nc(C(C)(C)C)cc2n1`
## Output yes (1)

## Input Repeat with `COc1ccc2nc3n[nH]c(C)c3c(NCCOCCO)c2c1`
## Output yes (1)

## Input Repeat with `Cc1ccc(F)cc1S(=O)(=O)N[C@@H]1CCN(Cc2ccc(OC(C)C)cc2)C1`
## Output yes (1)

## Input Repeat with `CC(=O)NC[C@H]1CN(c2ccc(N3CCSCC3)c(F)c2)C(=O)O1`
## Output no (0)

## Input Repeat with `COc1ccccc1N1CCN(CC[C@@](C)(C(=O)C2CCCCC2)c2ccccc2)CC1`
## Output yes (1)

## Input Repeat with `CC#C[C@@H](CC(=O)O)c1ccc(OCc2ccc(CN3CCC4(C=Cc5ccccc54)CC3)s2)cc1`
## Output yes (1)

## Input Repeat with Cc1cc(CS(=O)(=O)c2ccccc2)cc(OCc2ccc(CN3CCCC3CO)cc2)c1 (stereo unspecified)
## Output yes (1)

## Input Repeat with `CCOc1cccc(NC(=O)c2ccc(N3CCCC3)c(C(F)(F)F)c2)c1`
## Output no (0)

## Input Repeat with `CCn1c(=O)n([C@H]2CCCN(c3nccc(-c4cc5ccccc5o4)n3)C2)c2ccccc21`
## Output no (0)

## Input Repeat with `Cc1[nH]c(/C=C2\C(=O)Nc3ccc(F)cc32)c(C)c1C(=O)NCCN1CCCC1`
## Output no (0)

## Input Repeat with `O=C(COc1ccc2ccccc2c1Br)Nc1cccnc1`
## Output yes (1)

## Input Repeat with `CC(C)c1ccc(NC(=O)Cn2cnc3c2c(=O)n(C)c(=O)n3C)cc1`
## Output no (0)

## Input Repeat with `CC(C)CCNc1ncccc1C(=O)N1CCN(Cc2ccccc2)CC1`
## Output yes (1)

## Input Repeat with O=C(C(Cc1cccc(C(F)(F)F)c1)NS(=O)(=O)c1cc(F)c2c(c1)CCNC2)N1CCCC1 (stereo unspecified)
## Output yes (1)

## Input Repeat with `CC(C)n1nc(C#Cc2ccccc2)c2c(N)ncnc21`
## Output yes (1)

## Input Repeat with `CC(C)c1cc2c(N3CCN(C4=NCC(C)(C)S4)CC3)ncnc2s1`
## Output yes (1)

## Input Repeat with `Fc1ccc(-c2cncc(CN3CCN(c4cccc5c4OCCO5)CC3)c2)cc1`
## Output yes (1)

## Input Repeat with `c1ccc(-c2ccc(CNc3nc(-c4ccccn4)nnc3-c3ccccc3)cc2)cc1`
## Output yes (1)

## Input Repeat with CCOC(=O)N1CCC(CN(Cc2ccc(Cl)cc2)Cc2ccc([N+](=O)[O-])s2)C1 (stereo unspecified)
## Output yes (1)

## Input Repeat with `O=C(COc1ccc(C(=O)c2ccccc2)cc1)NC1CCN(Cc2ccccc2)CC1`
## Output yes (1)
